details: in isopropanol, 291.15 K
assay metric: solubility (mole fraction)
Numbers only.

Ask: So what's the measured solubility (mole fraction) for this one? CC(CCC(=O)O)(c1ccc(O)cc1)c1ccc(O)cc1
Reply: 0.0631

----------
details: in n-butanol, 288.15 K
assay metric: solubility (mole fraction)

Ask: So what's the measured solubility (mole fraction) for this one? CC(CCC(=O)O)(c1ccc(O)cc1)c1ccc(O)cc1
Reply: 0.0712

----------
settings: in acetonitrile, 318.15 K
assay metric: solubility (mole fraction)
One number for each entry.

Ask: So what's the measured solubility (mole fraction) for this one? CC(CCC(=O)O)(c1ccc(O)cc1)c1ccc(O)cc1
Reply: 0.0238

----------
settings: in n-propanol, 303.15 K
assay metric: solubility (mole fraction)
Give bare numbers.

Ask: So what's the measured solubility (mole fraction) for this one? CC(CCC(=O)O)(c1ccc(O)cc1)c1ccc(O)cc1
Reply: 0.0541

----------
conditions: in n-propanol, 297.15 K
assay metric: solubility (mole fraction)
One number for each entry.

Ask: So what's the measured solubility (mole fraction) for this one? CC(CCC(=O)O)(c1ccc(O)cc1)c1ccc(O)cc1
Reply: 0.046

----------
details: in n-propyl acetate, 309.15 K
assay metric: solubility (mole fraction)
Give bare numbers.

Ask: So what's the measured solubility (mole fraction) for this one? CC(CCC(=O)O)(c1ccc(O)cc1)c1ccc(O)cc1
Reply: 0.0403

----------
settings: in n-propanol, 294.15 K
assay metric: solubility (mole fraction)
Numbers only.

Ask: So what's the measured solubility (mole fraction) for this one? CC(CCC(=O)O)(c1ccc(O)cc1)c1ccc(O)cc1
Reply: 0.0416

----------
conditions: in n-propanol, 291.15 K
assay metric: solubility (mole fraction)

Ask: So what's the measured solubility (mole fraction) for this one? CC(CCC(=O)O)(c1ccc(O)cc1)c1ccc(O)cc1
Reply: 0.0384

----------
settings: in methanol, 303.15 K
assay metric: solubility (mole fraction)

Ask: So what's the measured solubility (mole fraction) for this one? CC(CCC(=O)O)(c1ccc(O)cc1)c1ccc(O)cc1
Reply: 0.11

----------
settings: in sec-butanol, 303.15 K
assay metric: solubility (mole fraction)
One number for each entry.

Ask: So what's the measured solubility (mole fraction) for this one? CC(CCC(=O)O)(c1ccc(O)cc1)c1ccc(O)cc1
Reply: 0.11

----------
conditions: in methanol, 306.15 K
assay metric: solubility (mole fraction)
Answers are plain numbers.

Ask: So what's the measured solubility (mole fraction) for this one? CC(CCC(=O)O)(c1ccc(O)cc1)c1ccc(O)cc1
Reply: 0.114

----------
conditions: in n-butyl acetate, 318.15 K
assay metric: solubility (mole fraction)
Numbers only.

Ask: So what's the measured solubility (mole fraction) for this one? CC(CCC(=O)O)(c1ccc(O)cc1)c1ccc(O)cc1
Reply: 0.0428

----------
details: in ethyl formate, 312.15 K
assay metric: solubility (mole fraction)
Numbers only.

Ask: So what's the measured solubility (mole fraction) for this one? CC(CCC(=O)O)(c1ccc(O)cc1)c1ccc(O)cc1
Reply: 0.0183

----------
settings: in n-butanol, 291.15 K
assay metric: solubility (mole fraction)
Numbers only.

Ask: So what's the measured solubility (mole fraction) for this one? CC(CCC(=O)O)(c1ccc(O)cc1)c1ccc(O)cc1
Reply: 0.0763

----------
settings: in methyl acetate, 312.15 K
assay metric: solubility (mole fraction)
One number for each entry.

Ask: So what's the measured solubility (mole fraction) for this one? CC(CCC(=O)O)(c1ccc(O)cc1)c1ccc(O)cc1
Reply: 0.0713

----------
conditions: in acetonitrile, 315.15 K
assay metric: solubility (mole fraction)
One number for each entry.

Ask: So what's the measured solubility (mole fraction) for this one? CC(CCC(=O)O)(c1ccc(O)cc1)c1ccc(O)cc1
Reply: 0.0208

----------
details: in ethanol, 312.15 K
assay metric: solubility (mole fraction)
Give bare numbers.

Ask: So what's the measured solubility (mole fraction) for this one? CC(CCC(=O)O)(c1ccc(O)cc1)c1ccc(O)cc1
Reply: 0.136

----------
conditions: in acetonitrile, 309.15 K
assay metric: solubility (mole fraction)

Ask: So what's the measured solubility (mole fraction) for this one? CC(CCC(=O)O)(c1ccc(O)cc1)c1ccc(O)cc1
Reply: 0.0162

----------
conditions: in sec-butanol, 312.15 K
assay metric: solubility (mole fraction)
Give bare numbers.

Ask: So what's the measured solubility (mole fraction) for this one? CC(CCC(=O)O)(c1ccc(O)cc1)c1ccc(O)cc1
Reply: 0.129

----------
settings: in n-propanol, 306.15 K
assay metric: solubility (mole fraction)
Give bare numbers.

Ask: So what's the measured solubility (mole fraction) for this one? CC(CCC(=O)O)(c1ccc(O)cc1)c1ccc(O)cc1
Reply: 0.0588

----------
details: in n-butanol, 318.15 K
assay metric: solubility (mole fraction)
One number for each entry.

Ask: So what's the measured solubility (mole fraction) for this one? CC(CCC(=O)O)(c1ccc(O)cc1)c1ccc(O)cc1
Reply: 0.12

----------
conditions: in n-propyl acetate, 300.15 K
assay metric: solubility (mole fraction)
One number for each entry.

Ask: So what's the measured solubility (mole fraction) for this one? CC(CCC(=O)O)(c1ccc(O)cc1)c1ccc(O)cc1
Reply: 0.0336

----------
settings: in isopropanol, 294.15 K
assay metric: solubility (mole fraction)
One number for each entry.

Ask: So what's the measured solubility (mole fraction) for this one? CC(CCC(=O)O)(c1ccc(O)cc1)c1ccc(O)cc1
Reply: 0.0634

----------
settings: in sec-butanol, 291.15 K
assay metric: solubility (mole fraction)

Ask: So what's the measured solubility (mole fraction) for this one? CC(CCC(=O)O)(c1ccc(O)cc1)c1ccc(O)cc1
Reply: 0.0876

----------
details: in sec-butanol, 306.15 K
assay metric: solubility (mole fraction)
Numbers only.

Ask: So what's the measured solubility (mole fraction) for this one? CC(CCC(=O)O)(c1ccc(O)cc1)c1ccc(O)cc1
Reply: 0.117

----------
conditions: in methanol, 291.15 K
assay metric: solubility (mole fraction)
Answers are plain numbers.

Ask: So what's the measured solubility (mole fraction) for this one? CC(CCC(=O)O)(c1ccc(O)cc1)c1ccc(O)cc1
Reply: 0.0983

----------
details: in n-butanol, 300.15 K
assay metric: solubility (mole fraction)
One number for each entry.

Ask: So what's the measured solubility (mole fraction) for this one? CC(CCC(=O)O)(c1ccc(O)cc1)c1ccc(O)cc1
Reply: 0.0919

----------
details: in n-butanol, 309.15 K
assay metric: solubility (mole fraction)

Ask: So what's the measured solubility (mole fraction) for this one? CC(CCC(=O)O)(c1ccc(O)cc1)c1ccc(O)cc1
Reply: 0.107

----------
conditions: in methyl acetate, 306.15 K
assay metric: solubility (mole fraction)
Give bare numbers.

Ask: So what's the measured solubility (mole fraction) for this one? CC(CCC(=O)O)(c1ccc(O)cc1)c1ccc(O)cc1
Reply: 0.063

----------
conditions: in ethanol, 318.15 K
assay metric: solubility (mole fraction)
Numbers only.

Ask: So what's the measured solubility (mole fraction) for this one? CC(CCC(=O)O)(c1ccc(O)cc1)c1ccc(O)cc1
Reply: 0.148

----------
settings: in isopropanol, 300.15 K
assay metric: solubility (mole fraction)
Give bare numbers.

Ask: So what's the measured solubility (mole fraction) for this one? CC(CCC(=O)O)(c1ccc(O)cc1)c1ccc(O)cc1
Reply: 0.0651

----------
settings: in methanol, 288.15 K
assay metric: solubility (mole fraction)

Ask: So what's the measured solubility (mole fraction) for this one? CC(CCC(=O)O)(c1ccc(O)cc1)c1ccc(O)cc1
Reply: 0.096

----------
conditions: in isopropanol, 309.15 K
assay metric: solubility (mole fraction)
Answers are plain numbers.

Ask: So what's the measured solubility (mole fraction) for this one? CC(CCC(=O)O)(c1ccc(O)cc1)c1ccc(O)cc1
Reply: 0.0718

----------
conditions: in acetonitrile, 312.15 K
assay metric: solubility (mole fraction)

Ask: So what's the measured solubility (mole fraction) for this one? CC(CCC(=O)O)(c1ccc(O)cc1)c1ccc(O)cc1
Reply: 0.0181

----------
settings: in acetonitrile, 294.15 K
assay metric: solubility (mole fraction)
Numbers only.

Ask: So what's the measured solubility (mole fraction) for this one? CC(CCC(=O)O)(c1ccc(O)cc1)c1ccc(O)cc1
Reply: 0.00973

----------
settings: in isopropanol, 303.15 K
assay metric: solubility (mole fraction)
Give bare numbers.

Ask: So what's the measured solubility (mole fraction) for this one? CC(CCC(=O)O)(c1ccc(O)cc1)c1ccc(O)cc1
Reply: 0.0665

----------
conditions: in ethanol, 309.15 K
assay metric: solubility (mole fraction)
Answers are plain numbers.

Ask: So what's the measured solubility (mole fraction) for this one? CC(CCC(=O)O)(c1ccc(O)cc1)c1ccc(O)cc1
Reply: 0.129

----------
details: in methyl acetate, 294.15 K
assay metric: solubility (mole fraction)
Answers are plain numbers.

Ask: So what's the measured solubility (mole fraction) for this one? CC(CCC(=O)O)(c1ccc(O)cc1)c1ccc(O)cc1
Reply: 0.0497
